- assayed-system: RORγt (Homo sapiens)
- Sequence (P51449 1-497 isoform P51449-2): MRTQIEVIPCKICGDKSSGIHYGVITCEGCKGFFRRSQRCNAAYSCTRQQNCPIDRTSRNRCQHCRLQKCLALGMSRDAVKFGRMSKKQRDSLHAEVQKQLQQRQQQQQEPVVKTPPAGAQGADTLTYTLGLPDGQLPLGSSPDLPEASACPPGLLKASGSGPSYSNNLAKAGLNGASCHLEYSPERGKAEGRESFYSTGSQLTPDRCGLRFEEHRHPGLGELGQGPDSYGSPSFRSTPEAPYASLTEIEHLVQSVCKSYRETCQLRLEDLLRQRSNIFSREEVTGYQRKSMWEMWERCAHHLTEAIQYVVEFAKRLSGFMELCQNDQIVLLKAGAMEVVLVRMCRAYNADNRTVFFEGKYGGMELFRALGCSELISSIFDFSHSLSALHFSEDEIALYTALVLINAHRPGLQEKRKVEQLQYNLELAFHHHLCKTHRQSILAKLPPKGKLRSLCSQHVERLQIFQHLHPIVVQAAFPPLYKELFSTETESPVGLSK
- assay-name: Cofactor recruitment test (Alpha Screen, biotinylated SRC-1 peptide)
- Assay type: biochemical
- applied-conditions: read-out: signal value inhibitory rate (%) at test compound 1 μM
Where a name gives a salt, the structure may show the parent alone.
measured-endpoint: inhibition at 1 µM (%)

compound: Cc1nnc(CC(=O)NC(C(=O)Nc2cc(F)c([Si](C)(C)C)c(F)c2)C2CCOCC2)o1 (stereo not shown)
recorded-number: 78

compound: COCc1ccc([C@@H](NC(=O)CN2CCOCC2)C(=O)Nc2ccc([Si](C)(C)C)c(F)c2)cc1 [Example 97, hydrochloride]
recorded-number: 93.6

compound: COCc1ccc([C@@H](NC(=O)Cn2ccc(=O)cn2)C(=O)Nc2ccc([Si](C)(C)C)c(F)c2)cc1
recorded-number: 95.1

compound: COCc1ccc([C@@H](NC(=O)[C@H]2CNC(=O)C2)C(=O)Nc2cc(F)c(C(C)(C)C)c(F)c2)cc1
recorded-number: 83.9

---

- assayed-system: RORγt (Homo sapiens, UniProt P51449)
- assay-name: RORγt binding test (TR-FRET, fluorescent-labeled cholesterol)
- applied-conditions: read-out: binding inhibitory rate (%) of fluorescent-labeled cholesterol to RORγt at test compound 1 μM
# inhibition at 1 µM per record follows

compound: COCc1ccc(C(NC(=O)Cc2cc(O)no2)C(=O)Nc2cc(F)c([Si](C)(C)C)c(F)c2)cc1 (stereo not shown)
assayed-system: RORγt (Homo sapiens, UniProt P51449)
inhibition at 1 µM: 103%
--
compound: COCc1ccc(C(NC(=O)Cc2cnn(C)c2)C(=O)Nc2ccc([Si](C)(C)C)cc2)cc1 (stereo not shown)
assayed-system: RORγt (Homo sapiens, UniProt P51449)
inhibition at 1 µM: 101%
--
compound: COCc1ccc([C@@H](NC(=O)c2cc(O)no2)C(=O)Nc2cc(F)c([Si](C)(C)C)c(F)c2)cc1
assayed-system: RORγt (Homo sapiens, UniProt P51449)
inhibition at 1 µM: 103%
--
compound: COCc1ccc(C(NC(=O)C2CNC(=O)C2)C(=O)Nc2ccc([Si](C)(C)C)c(C#N)c2)cc1 (stereo not shown)
assayed-system: RORγt (Homo sapiens, UniProt P51449)
inhibition at 1 µM: 103%
